Ref: the Human Domainome abundance scans (Beltran et al. 2025)

B1: Chromodomain-helicase-DNA-binding protein 5, residues 338 to 390; numbered along this chain, Q8TDI0 (parent)
chain: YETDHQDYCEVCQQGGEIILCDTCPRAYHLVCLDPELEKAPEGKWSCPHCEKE

variants of: B1; test: abundance fitness (aPCA) (normalised: wild type 0, dead -1); higher = more abundant; growth selection in yeast, the domain comes from the species named; settings: Homo sapiens
// label = yes if abundance fitness is not less than -0.3, otherwise no

- D34M: no
- E53K: yes
- R26I: yes
- A40Y: yes
- E17N: yes
- E42M: yes
- E51D: yes
- C50E: yes
- L20I: yes
- E42F: no
- L33I: yes
- K44I: no
- K39I: yes
- C21K: no
- E53C: yes
- S46H: yes
- L33F: yes
- V31R: yes
- C50D: no
- A27M: yes
- R26S: yes
- K44D: yes
- C32V: no
- K44T: yes
- E53S: no
- S46Q: no
- G16N: yes
- V31E: yes
- E36Y: no
- P25I: yes
- E42A: yes
- L33Y: yes
- E36T: yes
- C32D: no
- C21W: no
- D22W: no
- L30T: yes
- I19H: yes
- K39V: yes
- P25L: yes
- D34A: yes
- A40Q: yes
- C47K: no
- C21N: no
- E17K: yes
- C47H: yes
